Target: hMC1R (Homo sapiens (Human), UniProt Q01726)
Sequence (Q01726 whole entry): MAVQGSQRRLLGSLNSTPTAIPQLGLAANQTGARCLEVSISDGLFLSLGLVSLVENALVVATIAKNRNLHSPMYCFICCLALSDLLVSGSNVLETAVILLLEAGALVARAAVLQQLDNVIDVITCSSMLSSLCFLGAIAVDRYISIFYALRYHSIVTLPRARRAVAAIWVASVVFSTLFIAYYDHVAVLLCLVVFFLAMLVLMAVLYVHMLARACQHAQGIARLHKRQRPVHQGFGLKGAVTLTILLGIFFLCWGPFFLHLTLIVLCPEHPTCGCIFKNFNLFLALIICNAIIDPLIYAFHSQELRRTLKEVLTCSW
Assay: Transactivation test: melanocortin receptors (pCRE-Luc luciferase reporter), hMC1R
Settings: HEK293 transfected with pCRE-Luc and hMC1R; products tested alone (agonist), 6 h incubation; % activity vs NDP-MSH 10 nM; IA: inactive
Protocol: Transactivation Test: Melanocortin Receptors HEK293 lines are transfected with the pCRE-Luc and hMC1R, hMC3R, hMC4R or hMC5R vectors. The cells are cultured at 37° C., 5% CO2, in DMEM medium supplemented with 10% of foetal calf serum. […] The products and the reference ligand (NDP-MSH) are added the following day, and the plates are again incubated for 6 h at 37° C., 5% CO2. After the addition of lysis buffer containing luciferin, the plates are read on a Top-Count instrument. […]
Parameter: EC50 (nM)
Reply with just the number (in nM).

// worked examples, EC50 included
- Mol: "CCCCCC1(c2ccc(F)cc2F)CN(C(=O)[C@@H](Cc2ccc(OC)cc2)NC(=O)CCc2c[nH]cn2)C1"
  EC50 [nM]: 15
- Mol: "CCCCCC1(c2ccccc2F)CN(C(=O)[C@@H](Cc2ccc(OC)cc2)NC(=O)CCc2c[nH]cn2)C1"
  EC50 [nM]: 30
- Mol: "CCOC1(c2ccccc2C)CN(C(=O)[C@H](Cc2ccc(OC)cc2)NC(=O)CCc2c[nH]cn2)C1"
  EC50 [nM]: 2000

Query: May I ask what EC50 has been recorded for CCCCOC1(c2ccccc2F)CN(C(=O)[C@@H](Cc2ccc(OC)cc2)NC(=O)CCc2c[nH]cn2)C1 ?
Response: 60

====

target: hMC4R (Homo sapiens (Human)); assay: Transactivation test: melanocortin receptors (pCRE-Luc luciferase reporter), hMC4R; settings: HEK293 transfected with pCRE-Luc and hMC4R; products tested alone (agonist), 6 h incubation; % activity vs NDP-MSH 10 nM; IA: inactive
Sequence (P32245 whole entry): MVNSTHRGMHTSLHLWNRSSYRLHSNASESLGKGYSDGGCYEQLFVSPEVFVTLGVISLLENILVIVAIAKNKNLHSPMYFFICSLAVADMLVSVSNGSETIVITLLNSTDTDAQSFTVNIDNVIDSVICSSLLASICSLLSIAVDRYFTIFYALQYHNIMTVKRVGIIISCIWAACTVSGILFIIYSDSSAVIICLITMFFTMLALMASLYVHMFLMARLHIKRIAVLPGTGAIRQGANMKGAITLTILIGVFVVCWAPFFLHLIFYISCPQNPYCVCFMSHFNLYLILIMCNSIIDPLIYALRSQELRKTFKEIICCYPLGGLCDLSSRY
Parameter: pEC50
Please treat pEC50 as minus the base-10 logarithm of the molar concentration.

// worked examples, pEC50 included
- Mol: "CCCCOC1(c2ccc(F)cc2)CN(C(=O)[C@@H](Cc2ccccc2)NC(=O)CCC2=NCC=N2)C1"
  pEC50: 5.70
- Mol: "CCCOC1(c2ccccc2C)CN(C(=O)[C@@H](Cc2ccc(OC)cc2)NC(=O)CCc2c[nH]cn2)C1"
  pEC50: 5.00
- Mol: "CCCCOC1(c2ccccc2)CN(C(=O)[C@@H](Cc2ccccc2)NC(=O)CCc2c[nH]cn2)C1"
  pEC50: 5.70
- Mol: "CCCCOC1(c2ccccc2C)CN(C(=O)[C@@H](Cc2ccc(OC)cc2)NC(=O)C=Cc2c[nH]cn2)C1"
  pEC50: 6.30
- Mol: "COc1ccc(C[C@@H](NC(=O)CCc2c[nH]cn2)C(=O)N2CC(OCCCC(F)(F)F)(c3ccccc3C)C2)cc1"
  pEC50: 5.70
- Mol: "CCCCOC1(c2ccccc2F)CN(C(=O)[C@@H](Cc2ccc(OC)cc2)NC(=O)CCc2c[nH]cn2)C1"
  pEC50: 5.70

Let's switch to this molecule now.
Query: May I ask what pEC50 has been recorded for CCCCOC1(c2ccccc2)CN(C(=O)[C@@H](Cc2ccc(OC)cc2)NC(=O)CCc2c[nH]cn2)C1 ?
Response: 5.52
